Sourced from ChEMBL document CHEMBL4665758

Notes on IC50 obtained with Rho-associated protein kinase 1 (Homo sapiens, UniProt Q13464).
Sequence (Q13464 whole entry): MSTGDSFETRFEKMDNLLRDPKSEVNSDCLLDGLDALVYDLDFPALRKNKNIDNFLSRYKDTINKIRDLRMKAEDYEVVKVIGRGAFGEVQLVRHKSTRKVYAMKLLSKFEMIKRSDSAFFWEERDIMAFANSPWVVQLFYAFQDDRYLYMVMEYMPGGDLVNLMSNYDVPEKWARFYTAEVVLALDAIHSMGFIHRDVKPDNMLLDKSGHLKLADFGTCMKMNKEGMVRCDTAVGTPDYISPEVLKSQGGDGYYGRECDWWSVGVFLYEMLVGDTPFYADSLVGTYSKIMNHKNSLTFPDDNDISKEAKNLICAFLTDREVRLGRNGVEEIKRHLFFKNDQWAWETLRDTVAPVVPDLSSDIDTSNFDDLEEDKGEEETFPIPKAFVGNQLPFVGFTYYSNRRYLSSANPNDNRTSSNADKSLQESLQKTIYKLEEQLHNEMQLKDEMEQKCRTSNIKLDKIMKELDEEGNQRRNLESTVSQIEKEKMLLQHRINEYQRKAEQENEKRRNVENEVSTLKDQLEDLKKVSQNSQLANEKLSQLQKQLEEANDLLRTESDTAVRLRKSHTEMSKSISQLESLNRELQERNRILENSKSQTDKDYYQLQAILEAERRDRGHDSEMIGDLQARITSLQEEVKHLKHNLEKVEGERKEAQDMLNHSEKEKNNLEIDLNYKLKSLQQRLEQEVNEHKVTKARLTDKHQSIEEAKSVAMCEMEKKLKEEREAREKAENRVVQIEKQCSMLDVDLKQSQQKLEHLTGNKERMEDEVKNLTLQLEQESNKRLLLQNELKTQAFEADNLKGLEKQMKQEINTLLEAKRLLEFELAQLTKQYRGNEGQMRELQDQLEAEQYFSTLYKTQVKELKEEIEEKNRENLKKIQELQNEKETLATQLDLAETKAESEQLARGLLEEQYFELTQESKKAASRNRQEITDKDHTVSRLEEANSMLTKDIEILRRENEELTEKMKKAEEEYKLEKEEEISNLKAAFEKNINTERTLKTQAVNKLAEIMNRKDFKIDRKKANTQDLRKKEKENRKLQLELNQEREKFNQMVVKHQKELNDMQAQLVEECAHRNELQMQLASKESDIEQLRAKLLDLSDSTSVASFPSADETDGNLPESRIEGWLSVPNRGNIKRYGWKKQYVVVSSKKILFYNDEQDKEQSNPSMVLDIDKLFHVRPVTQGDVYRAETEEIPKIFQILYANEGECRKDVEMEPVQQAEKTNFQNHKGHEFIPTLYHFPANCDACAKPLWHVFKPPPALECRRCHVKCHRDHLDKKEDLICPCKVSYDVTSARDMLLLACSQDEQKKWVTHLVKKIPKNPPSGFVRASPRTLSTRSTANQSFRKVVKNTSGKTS
result_type: IC50 (nM)

Solved entries (count: 2):
molecule | tgt | unit_info | test_result
CCN1CCC[C@H]1CNC(=O)c1cccc(CNC(=O)c2ccc3c(c2)C(C)Oc2cnccc2-3)c1 (mixture of isomers) | Rho-associated protein kinase 1 (Homo sapiens, UniProt Q13464) | nM | 1.2
C[C@@H](NC(=O)c1ccc2c(c1)OCc1cnccc1-2)c1ccccc1 | Rho-associated protein kinase 1 (Homo sapiens, UniProt Q13464) | nM | 18

I = N[C@H](Cc1ccccc1)C(=O)Nc1ccc2c(c1)OCc1cnccc1-2
II = O=C(Cc1ccccc1)Nc1ccc2c(c1)OCc1cnccc1-2
III = COc1cccc([C@@H](C)NC(=O)c2ccc3c(c2)C(C2CC2)Oc2cnccc2-3)c1 (some centres not stated)
IV = CCC1Oc2cnccc2-c2ccc(C(=O)N[C@H](C)c3cccc(OC)c3)cc21 (mixture of isomers)
V = CCC1Oc2cnccc2-c2ccc(C(=O)N[C@H](C)c3cccc(OC)c3)cc21 (stereo in doubt; 18)
Req: Order by IC50, ascending. Lab note: record answer as labels in requested order.
Resp: IV, V, III, I, II
